Data credit: patent EP0662819B1

assay: Solubility of acyclovir in glycerol formal/water and glycerol formal/propylene glycol/water mixtures; type: physicochemical; conditions: organic solvent or mixture; Glycerol formal/propylene glycol/water 11/29/20 g/g/ml; room temperature
quantityName: solubility at 2 h (µg/mL)
Respond numerically; units are µg/mL and should not be typed.

query: Indicate the recorded solubility at 2 h value for this molecule: Nc1nc2c(ncn2COCCO)c(=O)[nH]1 [acyclovir, 9-[(2-hydroxyethoxy)methyl]guanine]
result: 4710

----------
assay: Solubility of acyclovir in glycerol formal/water and glycerol formal/propylene glycol/water mixtures; format: physicochemical; settings: 0 percent by volume glycerol formal in water; room temperature, stirred 2 hours
quantityName: solubility at 2 h (mg/mL)
Please respond with the number in mg/mL and leave the unit unwritten.

query: Dear colleague, please send me the reported solubility at 2 h for Nc1nc2c(ncn2COCCO)c(=O)[nH]1 [acyclovir, 9-[(2-hydroxyethoxy)methyl]guanine] when you can.
result: 1.17

----------
assay: Solubility of acyclovir in glycerol formal/water and glycerol formal/propylene glycol/water mixtures; format: physicochemical; settings: 75% glycerol formal in water, organic solvent or mixture; 75 percent by volume glycerol formal in water; room temperature, stirred 2 hours
quantityName: solubility at 2 h (µg/mL)
Record the value in µg/mL, omitting the unit from your answer.

query: Specify reported solubility at 2 h for the compound shown: Nc1nc2c(ncn2COCCO)c(=O)[nH]1 [acyclovir, 9-[(2-hydroxyethoxy)methyl]guanine]
result: 4150

----------
assay: Solubility of acyclovir in glycerol formal/water and glycerol formal/propylene glycol/water mixtures; type: physicochemical; conditions: 60% glycerol formal in water, organic solvent or mixture; 60 percent by volume glycerol formal in water; room temperature, stirred 2 hours
quantityName: solubility at 2 h (µg/mL)
Numbers only here, please. The scale is µg/mL.

query: State its solubility at 2 h: Nc1nc2c(ncn2COCCO)c(=O)[nH]1 [acyclovir, 9-[(2-hydroxyethoxy)methyl]guanine]
result: 4670

----------
Experiment: Solubility of acyclovir in glycerol formal/water and glycerol formal/propylene glycol/water mixtures
Type: physicochemical
Conditions: 25% glycerol formal in water, organic solvent or mixture; 25 percent by volume glycerol formal in water; room temperature, stirred 2 hours
Protocol: A surplus of acyclovir is added to glycerol formal/water mixtures and glycerol formal/propylene glycol/water mixtures at room temperature, and the mixtures are then stirred for 2 hours and filtered. Subsequent to adequate dilution with 0.1 N NaOH the solutions are spectrophotometrically measured at 260 nm against 0.1 N NaOH. A 0.01% solution of acyclovir in 0.1 N NaOH is used as standard.
quantityName: solubility at 2 h (µg/mL)
The reply should be a number in µg/mL, with the unit left off.

query: Hello, please tell me recorded solubility at 2 h for this one: Nc1nc2c(ncn2COCCO)c(=O)[nH]1 [acyclovir, 9-[(2-hydroxyethoxy)methyl]guanine]
result: 2640

----------
test: Solubility of acyclovir in glycerol formal/water and glycerol formal/propylene glycol/water mixtures; type: physicochemical; settings: organic solvent or mixture; Glycerol formal/propylene glycol/water 30/10/20 g/g/ml; room temperature
quantityName: solubility at 2 h (mg/mL)
Report as a plain number; the unit mg/mL is understood.

query: Supply measured solubility at 2 h of Nc1nc2c(ncn2COCCO)c(=O)[nH]1 [acyclovir, 9-[(2-hydroxyethoxy)methyl]guanine] in your reply.
result: 5.2

----------
assay: Solubility of acyclovir in glycerol formal/water and glycerol formal/propylene glycol/water mixtures; format: physicochemical; settings: organic solvent or mixture; 100 percent by volume glycerol formal; room temperature, stirred 2 hours
quantityName: solubility at 2 h (µg/mL)
State just the number; it will be interpreted in µg/mL.

query: State, in one line, measured solubility at 2 h of Nc1nc2c(ncn2COCCO)c(=O)[nH]1 [acyclovir, 9-[(2-hydroxyethoxy)methyl]guanine]
result: 3270
